// reported binding signal for each item listed
Target: TDP-43 (Homo sapiens, UniProt Q13148 1-414)
Sequence (Q13148 whole entry): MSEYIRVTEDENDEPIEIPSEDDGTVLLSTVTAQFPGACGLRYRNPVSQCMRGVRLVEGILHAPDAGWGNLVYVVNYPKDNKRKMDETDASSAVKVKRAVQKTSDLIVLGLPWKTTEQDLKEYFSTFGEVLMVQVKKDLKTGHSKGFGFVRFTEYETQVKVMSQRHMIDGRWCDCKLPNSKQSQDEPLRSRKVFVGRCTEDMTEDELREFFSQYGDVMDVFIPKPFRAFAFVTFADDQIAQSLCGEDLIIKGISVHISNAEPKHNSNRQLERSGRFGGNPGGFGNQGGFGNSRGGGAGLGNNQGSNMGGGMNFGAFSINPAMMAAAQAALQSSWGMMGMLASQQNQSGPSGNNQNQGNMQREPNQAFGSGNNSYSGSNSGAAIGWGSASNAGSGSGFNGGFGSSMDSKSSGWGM
Test: RNA Bind-n-Seq with designed 260-mer pool; 25 mM Tris-HCl, 150 mM KCl, 3 mM MgCl2, BSA (printed 500 mg/mL), 20 units/mL SUPERase IN; pH not stated; 500 nM RNA pool, 1 h, 4 C; TDP-43 5, 50, 500 nM; high values mean tight binding
Settings: protein: recombinant; tags: SBP (GST cleaved off with PreScission; pGEX-GST-SBP)
In all, about 9,900 sequences were measured (“r (bound/input frequency ratio)”: median about 0.7, highest 2% from about 6.5 on). Shown is part of a subset that was picked to be rich in the highest values.

# binder, binding signal
data = [
    ("ENSMUSG00000058297.9|Spock2 (ssRNA) RNA: GGGAGUUCUACAGUCCGACGAUCGCUUCGAUAUCCGCAUGCUAGGAGGAGGAGGGUGAGGCGGGUGAGGCAGAUGAUGGAGGCUACAUCUGGUAGAUAGCCCUCGACGGCCUCGGCAGGCCAGGGUGCCGACGGCCAGAAAGACAGGCCAGAAGAGACCUGGACAACAGCAGGCAACUUAGCAAAUGGAUCCGGAAGUCAGUGCGGAGGACCCUGGCUCCAGUGGGGGAGGACUGGGGAGUGUGGCUUGUGUGUAUGUGUGAUAUGAGAUGUGUGUGUAUGAUGUGAGAUGUGAGUGUGUGAUCUCUUGCGGUCGCACUAGUGUGGAAUUCUCGGGUGUCAAGG", "5.99 R (bound/input frequency ratio)"),
    ("ENSMUSG00000058297.8|Spock2 (ssRNA) RNA: GGGAGUUCUACAGUCCGACGAUCGCUUCGAUAUCCGCAUGCUAGGCCGAGGAGGAGGAGGGUGAGGCGGGUGAGGCAGAUGAUGGAGGCUACAUCUGGUAGAUAGCCCUCGACGGCCUCGGCAGGCCAGGGUGCCGACGGCCAGAAAGACAGGCCAGAAGAGACCUGGACAACAGCAGGCAACUUAGCAAAUGGAUCCGGAAGUCAGUGCGGAGGACCCUGGCUCCAGUGGGGGAGGACUGGGGAGUGUGGCUUGUGUGUAUGUGUGAUAUGAGAUGUGUGUGUAUGAUGUGAGAUGUGAGUGCUCUUGCGGUCGCACUAGUGUGGAAUUCUCGGGUGUCAAGG", "6.51 R (bound/input frequency ratio)"),
]
